assay: Venous thrombosis: venous stasis under hypercoagulation (Wessler), thrombus removed and weighed; type: in vivo, male Wistar rats; settings: Rattus norvegicus, po; 12.5 mg/kg administered orally, suspension in PEG 400; thrombosis induced 4 hours after treatment
Readout name: inhibition in vivo at 12.5 mg/kg
Reply with the number, then its unit.

N#Cc1ccccc1S[C@@H]1SC[C@@H](O)[C@H](O)[C@H]1O    88.6%
N#Cc1ccc(S[C@@H]2SC[C@@H](O)[C@H](O)[C@H]2O)cc1    90%

As a next step, examine the compound that follows.
get_value(item= CC(=O)O[C@@H]1[C@@H](OC(C)=O)[C@H](Sc2ccc(C#N)cc2)SC[C@H]1OC(C)=O , readout=inhibition in vivo at 12.5 mg/kg) returns 90%

Each recorded value in this set is attributed to patent US5101048A.
